pEC50: recorded values
SYSTEM UNDER TEST: BRD2-BD1 (Homo sapiens (Human))
Sequence (P25440 74-180): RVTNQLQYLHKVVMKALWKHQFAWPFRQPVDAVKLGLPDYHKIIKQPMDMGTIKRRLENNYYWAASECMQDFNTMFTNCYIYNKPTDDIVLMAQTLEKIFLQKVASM
TEST SUMMARY: competitive TR-FRET assay, BET-BD with acetylated peptide ligand
Format: binding
EXPERIMENTAL CONDITIONS: BRD2-BD1; Table 11 additional modifications; read-out: 2.1 EC50
Method: Inhibitor potency was determined using a competitive TR-FRET assay as detailed herein, measuring interaction of the respective BET-BD with an acetylated peptide ligand (Table 2).
FYI, pEC50 means -log10 of a concentration in mol per litre.

CC(=O)N1c2ccc(-c3cccc(NCC4CCCCC4)c3)cc2[C@H](NC(=O)OC(C)C)C[C@@H]1C	5.14
CC(=O)Nc1cccc(-c2ccc3c(c2)[C@H](NC(=O)c2ccc(F)cc2)C[C@H](C)N3C(C)=O)c1	4.15
COc1cc(F)ccc1N[C@@H]1C[C@H](C)N(C(C)=O)c2ccc(-c3cc[nH]n3)cc21	5.51
COc1cccc(-c2ccc3c(c2)[C@H](Nc2ccc(Cl)cc2)C[C@H](C)N3C(C)=O)c1	5.14
CC(=O)Nc1cccc(-c2ccc3c(c2)[C@H](NC2CCCCCC2)C[C@H](C)N3C(C)=O)c1	5.62

# input for lookup
CC(=O)Nc1cccc(-c2ccc3c(c2)[C@H](NC(=O)c2ccc(Cl)cc2)C[C@H](C)N3C(C)=O)c1 yielded pEC50 of 4.29
